Values compiled from ChEMBL document CHEMBL6177954.

Give pIC50 for every item shown.
# Tested on: SH-SY5Y
# Assay protocol: Anti-ferroptosis activity against RSL3-induced ferroptosis in human SH-SY5Y cells assessed as reversal of ferroptosis by measuring cell viability measured after 48 hrs by MTT assay
# Assay type: functional, cell-based
Give bare numbers, as −log10 of the molar value.

Some solved cases for reference:
COc1ccc(Nc2c(-c3c(Cl)cc(Cl)cc3Cl)nc3ccc4ccccc4n23)cc1Cl    7.66
Clc1cccc(CNc2c(-c3cccc(Cl)c3)nc3ccc4ccccc4n23)c1    6.54
c1ccc2c(c1)ccc1nc(-c3ccsc3)c(NC3CCCCC3)n12    6.37
Clc1cc(Cl)cc(CNc2c(-c3cc(Cl)cc(Cl)c3)nc3ccc4ccccc4n23)c1    6.12
CCOC(=O)CNc1c(-c2ccc(OC)cc2)nc2ccccn12    5.40
Clc1cc(Cl)cc(-c2nc3ccccn3c2NC2CCCCC2)c1    6.20
Clc1cc(Cl)cc(CNc2c(-c3cscn3)nc3ccccn23)c1    5.69
Oc1ccccc1-c1cn2ccccc2n1    5.01
CCOC(=O)CNc1c(-c2ccccc2)nc2ccccn12    5.53
COc1ccc(Nc2c(-c3cc(Cl)cc(Cl)c3)nc3ccc(N4CCN(C)CC4)cn23)cc1Cl    7.08

Record pIC50 per entry; entries follow.
1. COc1ccc(Nc2c(-c3csc4ccccc34)nc3ccccn23)cc1Cl
2. COc1ccc(Nc2c(-c3cc(Cl)cc(Cl)c3)nc3cc(COCc4cccc(Cl)c4)ccn23)cc1Cl
3. COc1ccc(Nc2c(C3CCCCC3)nc3ccccn23)cc1Cl
4. COc1ccc(Nc2c(-c3ccccc3Cl)nc3ccc4ccccc4n23)cc1Cl
5. FC(F)(F)c1ccccc1-c1nc2ccc3ccccc3n2c1NC1CCCCC1

6.71
6.10
7.01
7.19
6.98
